This collection of values is drawn from paper PMC5519559.

target: UniProtKB P08987; assay: Bio-layer interferometry (OctetRed96), […] binding model; supported by zymographic inhibition ([…] at […]); set-up: his-tagged catalytic domain, residues 268 aa–1074 aa
Sequence (P08987 268-1074): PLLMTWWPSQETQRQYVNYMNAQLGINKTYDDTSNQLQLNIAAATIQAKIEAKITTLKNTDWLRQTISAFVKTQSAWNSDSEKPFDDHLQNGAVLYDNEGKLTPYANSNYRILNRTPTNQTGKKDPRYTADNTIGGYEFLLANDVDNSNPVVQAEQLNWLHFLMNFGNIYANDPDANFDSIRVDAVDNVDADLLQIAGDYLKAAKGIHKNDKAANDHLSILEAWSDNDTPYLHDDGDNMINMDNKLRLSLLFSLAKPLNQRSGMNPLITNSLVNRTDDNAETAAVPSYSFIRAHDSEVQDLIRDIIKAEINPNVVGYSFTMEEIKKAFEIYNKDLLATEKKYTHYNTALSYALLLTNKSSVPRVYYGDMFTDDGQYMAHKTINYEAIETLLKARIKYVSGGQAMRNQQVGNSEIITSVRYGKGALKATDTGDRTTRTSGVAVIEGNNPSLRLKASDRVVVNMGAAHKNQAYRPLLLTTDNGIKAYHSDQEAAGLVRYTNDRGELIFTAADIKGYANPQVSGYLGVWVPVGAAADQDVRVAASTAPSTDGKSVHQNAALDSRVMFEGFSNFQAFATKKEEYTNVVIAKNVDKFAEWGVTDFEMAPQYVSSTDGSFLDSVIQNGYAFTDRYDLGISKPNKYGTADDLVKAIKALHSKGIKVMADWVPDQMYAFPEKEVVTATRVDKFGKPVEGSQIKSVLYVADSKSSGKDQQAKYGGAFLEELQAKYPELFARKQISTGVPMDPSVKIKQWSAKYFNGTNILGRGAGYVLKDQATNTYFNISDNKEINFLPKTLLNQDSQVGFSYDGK
pKd: −log10 of the molar value.
measurement.kind: pKd

smiles.representation	observed
NC(=O)c1ccccc1NC(=O)c1cc2cc([N+](=O)[O-])ccc2s1	5.43

###

molecular target: GtfC (Streptococcus mutans)
Sequence (P13470 295-1103): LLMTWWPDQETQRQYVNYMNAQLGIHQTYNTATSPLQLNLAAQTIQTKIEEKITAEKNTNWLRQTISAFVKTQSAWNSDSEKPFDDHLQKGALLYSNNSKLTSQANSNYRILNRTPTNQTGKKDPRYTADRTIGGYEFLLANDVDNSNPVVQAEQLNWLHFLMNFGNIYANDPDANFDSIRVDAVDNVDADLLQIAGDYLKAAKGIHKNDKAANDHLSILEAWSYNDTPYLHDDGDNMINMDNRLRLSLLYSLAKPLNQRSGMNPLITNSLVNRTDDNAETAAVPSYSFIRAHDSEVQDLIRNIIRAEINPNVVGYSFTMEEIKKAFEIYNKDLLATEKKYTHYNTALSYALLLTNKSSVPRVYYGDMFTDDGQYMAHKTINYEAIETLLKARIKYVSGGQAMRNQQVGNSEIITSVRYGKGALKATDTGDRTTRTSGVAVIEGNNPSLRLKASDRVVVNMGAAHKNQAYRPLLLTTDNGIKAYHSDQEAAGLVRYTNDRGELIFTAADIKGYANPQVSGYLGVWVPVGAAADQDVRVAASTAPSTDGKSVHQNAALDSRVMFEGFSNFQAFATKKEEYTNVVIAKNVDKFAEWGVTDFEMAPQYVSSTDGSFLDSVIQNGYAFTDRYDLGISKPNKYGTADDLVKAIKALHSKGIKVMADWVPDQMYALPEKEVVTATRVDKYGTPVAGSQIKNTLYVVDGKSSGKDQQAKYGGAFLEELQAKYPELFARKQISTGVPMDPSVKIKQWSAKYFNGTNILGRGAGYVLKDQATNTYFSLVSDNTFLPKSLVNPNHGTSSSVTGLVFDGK
measurement.kind: Kd (nM)

smiles.representation	observed
NC(=O)c1ccccc1NC(=O)c1cc2cc([N+](=O)[O-])ccc2s1	46.9
